In this section, each of the binders is paired with its reported percentage binding.
Target: CL-11 (C)
Test: FACS on CL-11 cells (do not express IGSF11; negative cell line) treated with IGSF11 siRNA (KD)
Hi! Could you send only the number? It should be in %, unit omitted.

Asked: // percentage binding lookup, key: B-002 (chain-swapped, human IgG1 format) (antibody, V domains shown, VH of A-006 with VL of A-012; IgG1 format; also called B2; Chains-B-002) VH: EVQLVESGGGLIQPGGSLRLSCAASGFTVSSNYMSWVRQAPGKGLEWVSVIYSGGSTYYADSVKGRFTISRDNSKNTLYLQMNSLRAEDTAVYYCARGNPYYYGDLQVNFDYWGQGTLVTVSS VL: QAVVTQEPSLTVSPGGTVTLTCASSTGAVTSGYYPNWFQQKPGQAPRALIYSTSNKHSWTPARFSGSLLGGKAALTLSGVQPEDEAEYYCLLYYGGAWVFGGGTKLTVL
Given back: 4.54
